src = ChEMBL document CHEMBL4400530

Test system: Human alphaherpesvirus 1
ASSAY_PROCEDURE: Antiviral activity against […] Herpes simplex virus 1 KOS infected in African green monkey Vero cells assessed as reduction in viral titer after 72 hrs by crystal violet staining based assay
Type: functional, organism-based
CONDITION_INFO: Human alphaherpesvirus 1, strain KOS
VALUE_KIND: EC50 (µM)
Report the figure in µM without appending any unit label.

Field EC50 (entry CC(O)CNC(=O)[C@@]1(C)CC[C@]2(C)CC[C@]3(C)C(=CC(=O)[C@@H]4[C@@]5(C)CC[C@H](O)C(C)(C)[C@@H]5CC[C@]43C)[C@@H]2C1 (stereo partly specified) ) reads 4.95
